Provenance of the data: patent US20120321619A1

target-desc: T1, recombinant soluble human C4.4a (human, UniProt O95274 31-308)
T1 construct: recombinant, soluble, purified protein; also called hC4.4a; full length C4.4a
T1 sequence: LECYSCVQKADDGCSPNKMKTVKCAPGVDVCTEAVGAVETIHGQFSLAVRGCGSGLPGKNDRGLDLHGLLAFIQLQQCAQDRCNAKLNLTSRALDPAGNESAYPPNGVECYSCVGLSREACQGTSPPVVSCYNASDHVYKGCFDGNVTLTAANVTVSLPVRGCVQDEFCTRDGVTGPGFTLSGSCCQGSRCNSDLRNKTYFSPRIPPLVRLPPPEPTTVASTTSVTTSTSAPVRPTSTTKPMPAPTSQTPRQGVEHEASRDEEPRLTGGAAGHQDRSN
protocol-description: direct ELISA, Fab supernatant on coated human C4.4a, signal normalized to Fab quantity
attribute-measured: normalized affinity signal (average)
Give bare numbers.

M31-B01 Fab LC W91F (Fab, V domains shown, Fab with 3×HA-tag and hexa-histidine tag at the C-terminus of the heavy chain, culture supernatant) VH: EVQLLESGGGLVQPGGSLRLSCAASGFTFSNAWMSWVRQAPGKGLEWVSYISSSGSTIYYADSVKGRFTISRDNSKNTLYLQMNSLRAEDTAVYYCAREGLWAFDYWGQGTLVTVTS VL: QSVLTQPPSASGTPGQRVTISCTGSSSNIGAGYVVHWYQQLPGTAPKLLIYDNNKRPSGVPDRFSGSKSGTSASLAISGLRSEDEADYYCAAFDDRLNGPVFGGGTKLTVLG: 4.3

Form field: reported normalized affinity signal (average) of M31-B01 Fab LC P96A (Fab, V domains shown, Fab with 3×HA-tag and hexa-histidine tag at the C-terminus of the heavy chain, culture supernatant) VH: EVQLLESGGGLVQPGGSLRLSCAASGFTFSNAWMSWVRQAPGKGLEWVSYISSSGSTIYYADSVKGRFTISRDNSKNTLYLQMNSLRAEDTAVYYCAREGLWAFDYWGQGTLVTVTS VL: QSVLTQPPSASGTPGQRVTISCTGSSSNIGAGYVVHWYQQLPGTAPKLLIYDNNKRPSGVPDRFSGSKSGTSASLAISGLRSEDEADYYCAAWDDRLNGAVFGGGTKLTVLG 0.95
